These data points were gathered from PubChem BioAssay (NCI).

System: SF-539 CNS
Experiment: NCI-60 one-dose screen, 48 h
Settings: 10 µM unless noted
The panel holds about 83,000 compounds, 20% with a hit somewhere; the sample as a whole holds those more often. The source made the active and inactive calls. The calls were made as follows: active = growth percent below 10; inactive = the rest.
API: response.call in 1 (yes) for active, 0 (no) for inactive

Worked cases, answers included:
CCCCCCCCn1ccc2cc(NC(=O)CN3CCN(c4nc(C)cc(N5CCCCC5)n4)CC3)ccc21	0 (no)
NC(=O)c1c(NC(=O)/C=C/c2cccs2)sc2c1CCC(=O)C2	0 (no)
O=c1c(/C=C/c2ccco2)nnc2sc(Nc3ccc(Cl)cc3)nn12	0 (no)
C[C@]12CCc3c(ccc4cc(O)ccc34)[C@@H]1C[C@H](O)[C@@H]2O	0 (no)
Cc1ccc(-c2nc3nc(-c4ccc(F)cc4)nc(N4CCCNCC4)c3o2)cc1	1 (yes)
CCOC(=O)c1c(-c2ccc(OC)cc2)c(C#N)c2c(C#N)c(N)nn2c1N	0 (no)
COc1cccc(C2C(C#N)=C(N)Oc3cc(OCCCCCC[P+](c4ccccc4)(c4ccccc4)c4ccccc4)ccc32)c1 (stereo not drawn)	1 (yes)
Nc1nc(Nc2cccnc2)sc1C(=O)c1ccccc1F	1 (yes)
C=C(C)[C@@H]1CC[C@]2(C(=O)O)CC[C@]3(C)[C@H](CC[C@@H]4[C@@]5(C)CCC(N)C(C)(C)[C@@H]5CC[C@]43C)[C@@H]12 (stereo partly drawn)	0 (no)
COc1ccc(/C=N\Nc2nc(SCC(C)C)nc(-c3ccc(OC)cc3)c2C#N)cc1	0 (no)

Challenge: What call does the record list for Cc1ccc(/C=C(\C#N)c2cc3ccccc3[nH]2)cc1 ?
Response given: 0 (no)

Challenge: What was the test verdict on Nc1ccc(-c2ccc(N)c(Br)c2)cc1Br ?
Response given: 0 (no)

Challenge: Give the logged outcome of this assay for the following molecule: CCCCCCNC(=O)Oc1ccc(/C(=C(/CC)Cc2ccccc2)c2ccc(OCCCN(C)C)cc2)cc1
Response given: 0 (no)

Challenge: Lab log entry: O=C1C(=C(O)c2ccccc2)C(=O)c2ccccc21 — outcome as called in the assay?
Response given: 0 (no)

Challenge: So what was the verdict on COC(=O)N/N=C/c1c[n+]([O-])c2ccccc2[n+]1[O-] in this test?
Response given: 0 (no)

Challenge: Given COc1ccc2c(c1)c(C(=O)c1nc(-c3cn(C)c4ccccc34)no1)cn2C , state the outcome it received in this test.
Response given: 0 (no)

Challenge: Dear all, I need the recorded test outcome for O=C(Oc1ccc(CO[N+](=O)[O-])cc1)c1ccccc1 , thank you.
Response given: 1 (yes)

Challenge: Record request — test call for Nc1ncnc2c1C(c1ccc([N+](=O)[O-])cc1)c1sc3c(F)cccc3c1O2 (stereo not drawn)
Response given: 0 (no)

Challenge: Outcome logged for Nc1n[nH]c2cccc(C#Cc3cccc(C(=O)Nc4ccc(CN5CCOCC5)c(C(F)(F)F)c4)c3)c12 in this assay:
Response given: 1 (yes)

Challenge: Any idea what this test logged for Cn1cc(-c2nonc2-c2cn(C)c3ccc(Br)cc23)c2ccccc21 ?
Response given: 1 (yes)
